System: A549
Test: Growth inhibition of human A549 cells after 72 hrs by MTT assay
Assay type: functional, cell-based
Conditions: A549, 72 h
# Lookup of reported IC50 keyed by entry
Write it as a number; the unit µM goes unstated.

Guide cases for IC50, answers given:
Req: Provide the documented IC50 with A549 as the system for O=C(NNc1nncc2ccccc12)C1CC1c1ccc(OCC(F)(F)F)cc1 (configuration not stated)
Resp: 48

Req: Notebook: pull reported IC50 for A549, entry CC(C)=CCOc1ccc(C2CC2C(=O)NNc2nncc3ccccc23)cc1 (configuration not stated)
Resp: 82

Req: Checklist item: IC50 tested on A549, entry CC(C)=CCC/C(C)=C/COc1ccc(C2CC2C(=O)NNc2nncc3ccccc23)cc1 (configuration not stated) , value?
Resp: 36

Req: Can you look up IC50 on A549 for COc1ccc(C2CC2C(=O)NNc2nncc3ccccc23)cc1 (configuration not stated) ?
Resp: 96

Req: Query for A549: what IC50 does the record show for O=C(NNc1nncc2ccccc12)C1CC1c1ccc(OC(F)(F)F)cc1 (configuration not stated) ?
Resp: 87

Shift focus to the following entry.
Req: Enter reported IC50 observed with A549 for O=C(NNC(=O)C1CC1c1ccc(OCC(F)(F)F)cc1)c1ccncc1 (configuration not stated)
Resp: 10

====

Assay: Growth inhibition of human U373 cells after 72 hrs by MTT assay
Type: functional, cell-based, U-373MG ATCC
Conditions: U373 MG
experimental-readout: IC50 (µM)
Expressed in µM, but write only the number.

Example entries and their recorded answers appear below.
Req: Please look up its IC50: COc1ccc(C2CC2C(=O)NNc2nncc3ccccc23)cc1 (stereo not drawn)
Resp: 83

Req: Recorded IC50 of COc1ccc(C2CC2c2nnc3c4ccccc4cnn23)cc1 (stereo not drawn) , please.
Resp: 28

Req: # lookup: IC50 of CC(C)=CCC/C(C)=C/COc1ccc(C2CC2C(=O)NNC(=O)c2ccncc2)cc1 (stereo not drawn)
Resp: 84

Req: # IC50 lookup, item CCOc1ccc(C2CC2C(=O)NNc2nncc3ccccc23)cc1 (stereo not drawn)
Resp: 91

Req: Return reported IC50; argument: FC(F)(F)COc1ccc(C2CC2c2nnc3c4ccccc4cnn23)cc1 (stereo not drawn)
Resp: 58

Others:
Req: Find the recorded IC50 belonging to O=C(NNC(=O)C1CC1c1ccc(OCC(F)(F)F)cc1)c1ccncc1 (stereo not drawn) and report it.
Resp: 19

Req: Entry CC(C)=CCC/C(C)=C/COc1ccc(C2CC2C(=O)NNc2nncc3ccccc23)cc1 (stereo not drawn) : reported IC50 = ?
Resp: 9

Req: What measured IC50 goes with CCOc1ccc(C2CC2C(=O)NNC(=O)c2ccncc2)cc1 (stereo not drawn) ?
Resp: 63

Req: Give its IC50 value. Item: O=C(NNc1nncc2ccccc12)C1CC1c1ccc(OC(F)(F)F)cc1 (stereo not drawn)
Resp: 85

Req: Bench note: what IC50 did CCOc1ccc(C2CC2c2nnc3c4ccccc4cnn23)cc1 (stereo not drawn) show?
Resp: 44

Req: Looking for the measured IC50 of CC(C)=CCOc1ccc(C2CC2c2nnc3c4ccccc4cnn23)cc1 (stereo not drawn) , can you help?
Resp: 4

====

Experiment: Growth inhibition of human U373 cells after 72 hrs by MTT assay
Assay type: functional, cell-based, U-373MG ATCC
Details: U373 MG
The molecules listed here are annotated with their IC50.
Report only the number, with the unit µM understood.

Use these answered entries as a reference point.
Req: Requested field: IC50. Item: O=C(NNc1nncc2ccccc12)C1CC1c1ccc(OCC(F)(F)F)cc1 (stereo not given)
Resp: 25

Req: What measured IC50 goes with FC(F)(F)Oc1ccc(C2CC2c2nnc3c4ccccc4cnn23)cc1 (stereo not given) ?
Resp: 37

Req: Given CC(C)=CCOc1ccc(C2CC2C(=O)NNc2nncc3ccccc23)cc1 (stereo not given) , state its recorded IC50.
Resp: 81

More entries:
Req: Form field: reported IC50 of CC(C)=CCC/C(C)=C/COc1ccc(C2CC2c2nnc3c4ccccc4cnn23)cc1 (stereo not given)
Resp: 63

Req: Any idea what its IC50 is? The molecule is O=C(NNC(=O)C1CC1c1ccc(OC(F)(F)F)cc1)c1ccncc1 (stereo not given)
Resp: 37

====

Here the recorded pIC50 is given for each entry.
Tested on: A549
Assay: Growth inhibition of human A549 cells after 72 hrs by MTT assay
Type: functional, cell-based
Settings: A549, 72 h
# reply with the number alone; pIC50 is -log10 of concentration in mol/L

Req: Value wanted: pIC50 (A549) of entry CCOc1ccc(C2CC2C(=O)NNC(=O)c2ccncc2)cc1 (stereo unspecified)
Resp: 4.37

Req: Request body: readout pIC50, system A549, query CC(C)=CCOc1ccc(C2CC2c2nnc3c4ccccc4cnn23)cc1 (stereo unspecified) . Return the value.
Resp: 4.25

Req: Request: pIC50, test system A549, entry FC(F)(F)COc1ccc(C2CC2c2nnc3c4ccccc4cnn23)cc1 (stereo unspecified)
Resp: 4.19

Req: Item: FC(F)(F)Oc1ccc(C2CC2c2nnc3c4ccccc4cnn23)cc1 (stereo unspecified) Test system: A549 Read-out: pIC50 Value: ?
Resp: 4.43

Req: Any idea what pIC50 came out for CC(C)=CCC/C(C)=C/COc1ccc(C2CC2c2nnc3c4ccccc4cnn23)cc1 (stereo unspecified) on A549?
Resp: 4.35

Next:
Req: Please tell me: pIC50 of CCOc1ccc(C2CC2c2nnc3c4ccccc4cnn23)cc1 (stereo unspecified) , system A549?
Resp: 4.18

====

Tested on: A549
Assay: Growth inhibition of human A549 cells after 72 hrs by MTT assay
Assay type: functional, cell-based
Conditions: A549, 72 h
experimental-readout: IC50

Req: Record request: IC50 value, item COc1ccc(C2CC2C(=O)NNC(=O)c2ccncc2)cc1 (stereo unspecified)
Resp: > 100 µM

Req: Recorded IC50 of CC(C)=CCOc1ccc(C2CC2C(=O)NNC(=O)c2ccncc2)cc1 (stereo unspecified) , please.
Resp: > 100 µM

Req: GET /values?readout=IC50&item= CCOc1ccc(C2CC2C(=O)NNc2nncc3ccccc23)cc1 (stereo unspecified)
Resp: > 100 µM

Req: Consider the compound COc1ccc(C2CC2c2nnc3c4ccccc4cnn23)cc1 (stereo unspecified) and give its measured IC50.
Resp: 40 µM

Req: # query: IC50 of entry O=C(NNC(=O)C1CC1c1ccc(OC(F)(F)F)cc1)c1ccncc1 (stereo unspecified)
Resp: 56 µM

Please examine the following record next.
Req: Form field: reported IC50 of CC(C)=CCC/C(C)=C/COc1ccc(C2CC2C(=O)NNC(=O)c2ccncc2)cc1 (stereo unspecified)
Resp: 78 µM
